Experimental target: Epidermal Growth Factor Receptor (EGFR), extracellular domain (EGFR-ECD) (Homo sapiens)
Construct: full-length EGFR in DiscoverX PathHunter enzyme-complementation cells, EGF-stimulated
Sequence (P00533 25-1210): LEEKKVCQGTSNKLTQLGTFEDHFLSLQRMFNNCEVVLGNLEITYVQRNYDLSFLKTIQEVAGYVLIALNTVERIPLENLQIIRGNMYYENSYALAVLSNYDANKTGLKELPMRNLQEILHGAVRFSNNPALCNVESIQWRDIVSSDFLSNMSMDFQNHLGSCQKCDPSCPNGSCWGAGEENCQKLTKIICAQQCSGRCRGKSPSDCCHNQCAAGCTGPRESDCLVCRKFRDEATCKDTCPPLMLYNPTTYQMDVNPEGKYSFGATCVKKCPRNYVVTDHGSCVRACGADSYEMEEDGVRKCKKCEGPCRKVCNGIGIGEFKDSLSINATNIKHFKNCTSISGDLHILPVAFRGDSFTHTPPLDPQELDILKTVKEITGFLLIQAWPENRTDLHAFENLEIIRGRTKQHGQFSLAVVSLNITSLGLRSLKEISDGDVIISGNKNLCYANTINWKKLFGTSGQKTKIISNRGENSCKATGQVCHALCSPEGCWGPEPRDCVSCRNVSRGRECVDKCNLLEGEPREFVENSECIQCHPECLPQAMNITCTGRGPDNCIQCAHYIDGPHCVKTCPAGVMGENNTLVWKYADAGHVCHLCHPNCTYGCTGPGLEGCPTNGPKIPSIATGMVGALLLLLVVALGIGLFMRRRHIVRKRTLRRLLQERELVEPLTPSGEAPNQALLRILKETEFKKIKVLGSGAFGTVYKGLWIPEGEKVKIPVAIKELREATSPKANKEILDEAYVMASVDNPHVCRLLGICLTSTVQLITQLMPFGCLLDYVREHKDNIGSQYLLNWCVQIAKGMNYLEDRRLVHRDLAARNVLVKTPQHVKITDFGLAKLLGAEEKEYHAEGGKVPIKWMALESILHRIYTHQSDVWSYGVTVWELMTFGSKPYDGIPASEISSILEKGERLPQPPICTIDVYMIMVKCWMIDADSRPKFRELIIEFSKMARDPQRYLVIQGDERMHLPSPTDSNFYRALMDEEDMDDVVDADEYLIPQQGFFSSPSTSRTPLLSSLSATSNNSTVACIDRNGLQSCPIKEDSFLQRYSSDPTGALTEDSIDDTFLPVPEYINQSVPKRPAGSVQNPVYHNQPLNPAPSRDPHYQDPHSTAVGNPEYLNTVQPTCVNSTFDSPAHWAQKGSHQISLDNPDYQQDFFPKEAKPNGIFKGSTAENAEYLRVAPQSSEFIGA
Test method notes: cell-based
Set-up: DiscoverX PathHunter EGFR dimerization/activation assay, chemiluminescence
Readout label: inhibition at 50 µM (%)
Your answer should be a plain number; it is taken to be in %.

In the examples that follow, each entry is paired with its recorded inhibition at 50 µM.
CC(=O)c1cccc2cc3c(C(C)=O)cccc3cc12 [DSF002]	0
FC(F)(F)c1cccc(-c2cc(-c3ccccc3)ncn2)c1 [DSF026]	0
O=C1c2ccccc2C(=O)c2c(NCCNCCO)ccc(F)c21 [DSF016]	25
Cc1c(CC(=O)Nc2ccc(NS(C)(=O)=O)cc2)c(=O)oc2c(C)c3oc4c(c3cc12)CCCC4 [DSF051]	50
Brc1cccc(-c2cc(-c3ccccc3)ncn2)c1 [DSF028]	0
CSc1cccc(Nc2ccc3cc(-c4cccs4)c(=O)oc3n2)c1 [DSF032]	3
COCCOc1ccc2c(C)c(CC(=O)Nc3ccc(C(=O)O)cc3)c(=O)oc2c1 [DSF046]	0
COc1cc(/C=C2/N=C(c3ccccc3)OC2=O)ccc1OC(C)=O [DSF072]	39

Record O=[N+]([O-])c1cc(Cl)ccc1S(=O)(=O)Nc1cccc(Cl)c1 [DSF086] / Epidermal Growth Factor Receptor (EGFR), extracellular domain (EGFR-ECD) (Homo sapiens), inhibition at 50 µM recorded as 19

* * *

Experimental target: Epidermal Growth Factor Receptor (EGFR), extracellular domain (EGFR-ECD) (Homo sapiens)
Construct: full-length EGFR in DiscoverX PathHunter enzyme-complementation cells, EGF-stimulated
Test method notes: cell-based
Parameters: DiscoverX PathHunter EGFR dimerization/activation assay, chemiluminescence
Readout label: inhibition at 50 µM (%)
Your answer should be a plain number; it is taken to be in %.

In the examples that follow, each entry is paired with its recorded inhibition at 50 µM.
Cc1c(CCC(=O)Nc2cccc(C(=O)O)c2)c(=O)oc2nc3oc4c(c3cc12)CCCC4	36
Cc1c(CC(=O)Nc2ccc(C(N)=O)cc2)c(=O)oc2c(C)c3oc4c(c3cc12)CCCC4	43
COc1ccc(OC)c(NS(=O)(=O)c2ccc(Cl)cc2[N+](=O)[O-])c1	22
O=C(O)c1ccc(-c2cc(-c3cccc(C(F)(F)F)c3)ncn2)cc1	34

Reported inhibition at 50 µM of O=c1oc2nc(Nc3cccc(-c4ccccc4)c3)nc(O)c2cc1-c1cccc(Br)c1 : 0

Reported inhibition at 50 µM of Cc1nc(Cl)cc(Nc2ncc(C(=O)O)s2)n1 : 0

Reported inhibition at 50 µM of O=[N+]([O-])c1cc(Cl)ccc1S(=O)(=O)N1CCCCC1 : 19

Reported inhibition at 50 µM of O=[N+]([O-])c1cc(Cl)ccc1S(=O)(=O)N1CCOCC1 : 22

Reported inhibition at 50 µM of O=C(CN1CCOCC1)Nc1ccc(NC(=O)CN2CCOCC2)c2c1C(=O)c1c(O)ccc(O)c1C2=O : 29

Reported inhibition at 50 µM of Nc1ccc2cc3cc(N)ccc3cc2c1 : 0

Reported inhibition at 50 µM of Cc1ccc(NC(=O)Nc2ccc(Nc3cc(-c4ccccc4)ncn3)cc2)cc1 : 22

Reported inhibition at 50 µM of COc1ccc([N+](=O)[O-])c(C2=NC(=Cc3ccc(NC(C)=O)cc3)C(=O)O2)c1 : 41

Reported inhibition at 50 µM of COc1cccc(Nc2nc(O)c3cc(-c4cc(OC)cc(OC)c4)c(=O)oc3n2)c1 : 0

Reported inhibition at 50 µM of CC(=O)n1cc(/C=C2/N=C(c3ccccc3)OC2=O)c2ccccc21 : 39

Reported inhibition at 50 µM of O=C(O)COCC(=O)OCc1cc(O)c2c(c1)C(=O)c1cccc(O)c1C2=O : 39
